assay: Solubility test (DMSO precipitation method, Pharmacopoeia of Japan elution test second solution); assay type: physicochemical; conditions: aqueous buffer, kinetic from dmso stock; Pharmacopoeia of Japan elution test second solution pH=6.8, room temperature, five hours; quantitation range 5 to 100 μM
reportedProperty: solubility at 5 h (µM)

>>> df
                                   compound  displayunit  measuredresult
0  CC(O)(c1cc(Cl)c(NC(=O)NC[C@@H]2CCCO2)c(Cl)c1)C(F)(F)F (stereo partly drawn) [Example 5 (15)]           µM              90
1  O=C(NCc1nc(C(F)(F)F)no1)Nc1c(Cl)cc([C@H](O)C(F)(F)F)cc1Cl [Example 35 (1)]           µM             100
2  O=C(NCc1ncc(C(F)(F)F)cn1)Nc1c(Cl)cc([C@@H](O)C(F)(F)F)cc1Cl [Example 32 (4)]           µM              77
3  Cc1cc(C(O)C(F)(F)F)cc(Cl)c1NC(=O)NCc1ccc(C(F)(F)F)cn1 (stereo not drawn) [Example 62]           µM              71
4  C[C@](O)(c1cc(Cl)c(NC(=O)NCc2ncc(C(F)(F)F)cn2)c(Cl)c1)C(F)(F)F [Example 25 (1)]           µM              96
